experiment: soluble on expression in E. coli; label from the status in PepcDB or PDB records
assay_metric: soluble on expression in E. coli

sequence_content	assay_metric	test_result
CKYEGDAQKRLAIRPFPAEFVETVTLRDGQPILLRPILPEDEPLHAQFINSVSKEDLYKRFFSEVGEFNHEALANFTQIDYDREMAFVAVAFDKSGPSIIGVARALITPDNSDAEFAILVRSDLKGKGLGKILMEKIISYCKIKGTKQMSGMTMPTNRGMLMLAQRLGFEVDVQFADGTADMVLPLN	soluble on expression in E. coli	not soluble
MGSDKIHHHHHHMKSWVENVTIKKYEDRSGLTGLKQGPLVWTEVFLREVNRQSNTGILHFWPMDQTVILGMMDSQVAQLDKGLASIGQAGYSPIIRSLGGLAVVADDGILNVTLIFPNPSGHKVDLRESYQVMVDLIAQALSDFPFEVVSGEVATSYCPGTYDLSIKGRKFAGLAQRIYQEAIAISAYISVSGNQVKRGQVVADFYAASFAPQEVSDRFPQVNPNSMANLSDLVAQDLTMEDMKIRIEHVLIENGAFLTTFYPSSDNMADFMALGKTIKQSMEKYGI	soluble on expression in E. coli	not soluble
